molecular target: EGFR (Homo sapiens (Human), UniProt P00533)
Sequence (P00533 25-1210, species assumed): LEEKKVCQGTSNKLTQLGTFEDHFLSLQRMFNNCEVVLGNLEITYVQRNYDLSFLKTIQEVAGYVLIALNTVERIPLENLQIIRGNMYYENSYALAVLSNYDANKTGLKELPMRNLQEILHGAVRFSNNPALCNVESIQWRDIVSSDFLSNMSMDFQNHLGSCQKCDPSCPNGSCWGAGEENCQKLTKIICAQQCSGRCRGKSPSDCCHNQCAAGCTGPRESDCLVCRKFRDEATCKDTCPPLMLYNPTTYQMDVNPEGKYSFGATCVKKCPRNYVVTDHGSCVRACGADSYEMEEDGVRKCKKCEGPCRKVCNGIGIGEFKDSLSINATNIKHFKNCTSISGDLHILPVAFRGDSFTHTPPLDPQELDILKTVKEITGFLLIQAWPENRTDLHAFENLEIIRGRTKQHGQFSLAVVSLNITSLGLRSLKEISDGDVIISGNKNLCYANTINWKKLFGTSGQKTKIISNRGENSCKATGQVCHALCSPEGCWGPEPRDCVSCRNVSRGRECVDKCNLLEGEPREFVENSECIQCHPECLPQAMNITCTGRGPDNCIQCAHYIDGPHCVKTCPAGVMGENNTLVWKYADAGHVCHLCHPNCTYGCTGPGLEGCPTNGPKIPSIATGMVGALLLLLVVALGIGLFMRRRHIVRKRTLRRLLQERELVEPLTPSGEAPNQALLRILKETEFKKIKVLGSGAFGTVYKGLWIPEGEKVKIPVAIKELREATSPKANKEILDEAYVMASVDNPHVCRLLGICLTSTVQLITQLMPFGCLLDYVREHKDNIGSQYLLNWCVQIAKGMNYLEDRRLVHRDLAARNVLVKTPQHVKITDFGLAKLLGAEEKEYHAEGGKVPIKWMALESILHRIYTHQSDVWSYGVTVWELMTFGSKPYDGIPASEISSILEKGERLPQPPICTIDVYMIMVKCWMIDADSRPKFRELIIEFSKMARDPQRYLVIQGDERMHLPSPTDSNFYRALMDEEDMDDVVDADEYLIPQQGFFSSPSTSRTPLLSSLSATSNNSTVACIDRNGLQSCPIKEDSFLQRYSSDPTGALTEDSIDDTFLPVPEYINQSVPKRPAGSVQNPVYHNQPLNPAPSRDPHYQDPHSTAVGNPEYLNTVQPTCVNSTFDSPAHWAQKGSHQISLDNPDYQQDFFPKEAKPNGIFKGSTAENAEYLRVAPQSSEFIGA
pIC50: −log10 of the molar value.
# pIC50 >= 7 gives 1.0, anything below gives 0.0

[Q] Hello, I need to know if CN(C)C/C=C/C(=O)N1CCC(n2nc(-c3ccc(Oc4ccccc4)cc3)c3c(N)ncnc32)CC1 [Compound 7] has measured pIC50 not below 7. Thanks!
[A] 0.0

[Q] Try Nc1ncnc2c1c(-c1ccc(Oc3ccccc3)cc1)nn2C[C@@H]1CCCN1C(=O)/C=C/CN1CCOCC1 [Compound 21] next.
[A] 0.0

[Q] Try Nc1ncnc2c1c(-c1ccc(Oc3ccccc3)cc1)nn2C1CCN(C(=O)/C=C/CN2CCOCC2)CC1 [Compound 20] next.
[A] 0.0

[Q] Try Nc1ncnc2c1c(-c1ccc(Oc3ccccc3)cc1)nn2[C@H]1CC[C@@H](NC(=O)/C=C/CN2CCOCC2)CC1 [Compound 25] next.
[A] 0.0

[Q] Try Nc1ncnc2c1c(-c1ccc(Oc3ccccc3)cc1)nn2C1CCCN(C(=O)/C=C/CN2CCOCC2)C1 (stereo not shown) [Compound 5] next.
[A] 0.0

[Q] Try C=CC(=O)N1CCC[C@@H]1Cn1nc(-c2ccc(Oc3ccccc3)cc2)c2c(N)ncnc21 [Compound 13] next.
[A] 1.0

[Q] Try Nc1ncnc2c1c(-c1ccc(Oc3ccccc3)cc1)nn2[C@@H]1CCCN(C(=O)/C=C/CN2CCOCC2)C1 [Compound 24] next.
[A] 0.0

[Q] Try C=CC(=O)N1CCC[C@H]1Cn1nc(-c2ccc(Oc3ccccc3)cc2)c2c(N)ncnc21 [Compound 14] next.
[A] 1.0
